Test system: HepG2
TEST: Cytotoxicity against Homo sapiens (human) HepG2 cells assessed as survival at 100 uM after 24 hr by MTT assay relative to control
Assay type: functional
PARTICULARS: HepG2, 24 h, read-out: Survival
I'd be grateful if you could share measured viability at 100 µM for these entries.
Numeric only. Scale: %

For HepG2, give viability at 100 µM of the listed molecule: O=[N+]([O-])c1cccc(S(=O)(=O)N2CCC(C(O)(c3ccccc3)c3ccccc3)CC2)c1
64.2

Find the measured viability at 100 µM of O=S(=O)(c1ccc(Cl)cc1F)N1CCC(C(O)(c2ccccc2)c2ccccc2)CC1 with HepG2 as test system.
46.3

Report measured viability at 100 µM on HepG2; entry: O=[N+]([O-])c1ccc(S(=O)(=O)N2CCC(C(O)(c3ccccc3)c3ccccc3)CC2)cc1
68.7

Send back HepG2 viability at 100 µM of O=S(=O)(Cc1ccccc1)N1CCC(C(O)(c2ccccc2)c2ccccc2)CC1 only.
39.1

Output reported viability at 100 µM of the molecule O=S(=O)(c1ccc(Cl)cc1)N1CCC(C(O)(c2ccccc2)c2ccccc2)CC1 on HepG2.
52.2

Quote viability at 100 µM with test system HepG2 for CCCc1ccc(S(=O)(=O)N2CCC(C(O)(c3ccccc3)c3ccccc3)CC2)cc1
62.6

Report viability at 100 µM on HepG2 for this entry: CC(C)S(=O)(=O)N1CCC(C(O)(c2ccccc2)c2ccccc2)CC1
64.7

Report the value of viability at 100 µM obtained on HepG2 for Cc1noc(C)c1S(=O)(=O)N1CCC(C(O)(c2ccccc2)c2ccccc2)CC1 .
52.2

Please report the measured viability at 100 µM for O=[N+]([O-])c1ccccc1S(=O)(=O)N1CCC(C(O)(c2ccccc2)c2ccccc2)CC1 tested on HepG2.
57.2

Report viability at 100 µM under test system HepG2 for CS(=O)(=O)N1CCC(C(O)(c2ccccc2)c2ccccc2)CC1 .
60.9

Write down measured viability at 100 µM (HepG2) for this molecule. Cc1ccc(S(=O)(=O)N2CCC(C(O)(c3ccccc3)c3ccccc3)CC2)cc1
62.7

Return reported viability at 100 µM for target or system HepG2, item O=S(=O)(CCl)N1CCC(C(O)(c2ccccc2)c2ccccc2)CC1 .
59.1

Print HepG2 viability at 100 µM for O=S(=O)(c1ccccc1)N1CCC(C(O)(c2ccccc2)c2ccccc2)CC1 .
68.3
